Some compounds, each annotated with its measured normalized growth.
test-protocol: chemical genetic growth profiling, strain panel (AID 1159580);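 note: tested at 20 µM; growth read once vehicle control cultures reached saturation at 30 °C; 1 = growth at the plate median or of vehicle wells; lower values mean less growth of the strain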
measurement-context: S. cerevisiae deletion strains, growth OD, locus YNL183C, strain NPR1, stronger effect = lower value
Hit rate of the full screen: of about 5,500 compounds, about 2,000 (36%) were called active. Inconclusive results (about 18%) are left out. The list shows a part of the results.

compound	normalized growth
O=C(O)/C=C/C=C/c1ccccc1	0.168 (active)
Cc1cc(Cl)ccc1NC(=S)NNC(=S)Nc1ccc(F)cc1	0.923 (inactive)
Nc1ncnc2c1ncn2C1O[C@H](COP(=O)(O)O)[C@@H](O)[C@H]1O (stereo not given in full)	0.97 (inactive)
COc1cc2c(c(OC)c1OC)-c1ccc(OC)c(=O)cc1[C@@H](NC(C)=O)CC2	0.99 (inactive)
CN[C@H](CC(=O)O)C(=O)O	0.992 (inactive)

====

Some compounds, each annotated with its measured normalized growth.
test-protocol: chemical genetic growth profiling, strain panel (AID 1159580)
measurement-context: S. cerevisiae deletion strains, growth OD, locus YHR079C, strain IRE1, stronger effect = lower value
In all, about 5,500 compounds went through this assay and about 2,000 (36%) were called active. Inconclusive results (about 18%) are left out. This is one part of the list.

compound	normalized growth
CC(C)=CCC[C@](C)(O)C1CC=C(C)CC1 (some centres not stated)	0.988
CC1(C)CCCC2(C)C3C1[C@@H](O)C2(C)C[C@H]3O (some centres not stated)	0.983
C=CC(C1=CC(=O)C=CC1=O)c1ccccc1 (configuration not stated)	1.02
O=C1C=CC2=C3c4cc(O)c(O)cc4CC3(O)COC2=C1O (configuration not stated)	1.01
Cc1c(Nc2ncccc2C(=O)O)cccc1C(F)(F)F	0.974
Cc1c2c(=O)[nH]ncc2c(-c2ccccc2)n1-c1ccc([N+](=O)[O-])cc1	0.994
C=CC(C1=CC(=O)C(OC)=CC1=O)c1ccc(O)cc1 (configuration not stated)	1.01
O=C1O[C@H](C(O)CO)C(O)=C1O (some centres not stated)	1
CCCCC1=NC2(CCCC2)C(=O)N1Cc1ccc(-c2ccccc2-c2nn[nH]n2)cc1	0.973
O=C1C=CC2=C3c4cc(O)c(O)cc4C[C@@]3(O)COC2=C1	1.02
OC[C@@H](O)[C@@H](O[C@@H]1O[C@H](CO)[C@@H](O)[C@H](O)[C@H]1O)[C@H](O)[C@@H](O)CO	1.02
Cc1ccc(/C(=C\CN2CCCC2)c2ccccn2)cc1	1.02

====

Some compounds, each annotated with its measured normalized growth.
test-protocol: chemical genetic growth profiling, strain panel (AID 1159580)
measurement-context: S. cerevisiae deletion strains, growth OD, locus YPR119W, strain clb2, stronger effect = lower value
In all, about 5,500 compounds went through this assay and about 2,000 (36%) were called active. Inconclusive results (about 18%) are left out. This is one part of the list.
assay-metric: normalized growth

compound	obs-value
Cc1ccsc1/C=C/C1=NCCCN1C	0.981
C=CC(C1=CC(=O)C(OC)=CC1=O)c1ccc(O)cc1 (stereo not given)	0.99
C=CC(C1=CC(=O)C(OC)=CC1=O)c1ccc(OC)cc1 (stereo not given)	0.944
Oc1c(Br)cc(Br)c2cccnc12	0.0704
Nc1ccc(S(=O)(=O)Nc2ccccn2)cc1	0.975
CC(=O)Oc1ccc(Cl)c2cccnc12	0.0672
O=C1CCCC2C3CC(CN12)[C@@H]1CCCCN1C3 (stereo not given in full)	0.999
CCN(CC)CCNC(=O)c1cc(S(C)(=O)=O)ccc1OC	1
Oc1ccc(Cl)c2cccnc12	0.0694
Oc1c(Cl)cc(Cl)c2cccnc12	0.0705

====

test-protocol: chemical genetic growth profiling, strain panel (AID 1159580);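 note: tested at 20 µM; growth read once vehicle control cultures reached saturation at 30 °C; 1 = growth at the plate median or of vehicle wells; lower values mean less growth of the strain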
measurement-context: S. cerevisiae deletion strains, growth OD, locus YMR058W, strain fet3, stronger effect = lower value
Hit rate of the full screen: of about 5,500 compounds, about 2,000 (36%) were called active. Not shown: some 18% with an inconclusive outcome. The list shows a part of the results.

molecule	normalized growth
COc1cc(C(=O)NCc2ccc(OCCN(C)C)cc2)cc(OC)c1OC	1.02
Cc1ccc2c(Cl)cc(Cl)c(O)c2n1	1.01
Nc1ncnc2c1ncn2C1C[C@H](O)[C@@H](CO)O1 (some centres not stated)	1.02
CC1(C)C(C(Cl)Cl)C2(Cl)C(Cl)C(Cl)C1(Cl)C2(Cl)Cl (configuration not stated)	0.991
CCCCC1=NC2(CCCC2)C(=O)N1Cc1ccc(-c2ccccc2-c2nn[nH]n2)cc1	1
CC(=O)Nc1ccc(S(=O)(=O)c2ccc(NC(C)=O)cc2)cc1	1.01
CC(C)NCC(O)c1ccc2ccccc2c1 (configuration not stated)	1
COc1cc(OC)c2c(=O)c(-c3ccccc3)c(C)oc2c1OC	0.988
Cc1occc(=O)c1O	0.971
Nc1ccc([As](=O)(O)O)cc1	1
CC(C)(C)NCC(O)c1ccccc1Cl (configuration not stated)	0.997
CCN(CC)CCOc1ccc2c(c1)C(=O)c1cc(OCCN(CC)CC)ccc1-2	0.994

====

test-protocol: chemical genetic growth profiling, strain panel (AID 1159580);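 note: tested at 20 µM; growth read once vehicle control cultures reached saturation at 30 °C; 1 = growth at the plate median or of vehicle wells; lower values mean less growth of the strain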
measurement-context: S. cerevisiae deletion strains, growth OD, locus YBR231C, strain swc5, stronger effect = lower value
About 2,000 (36%) of roughly 5,500 compounds were called active. Not shown: some 18% with an inconclusive outcome. The list shows a part of the results.
Some compounds, each annotated with its measured normalized growth.
assay-metric: normalized growth

compound	assay-metric	obs-value
CC(C)(C)NCC(O)c1ccccc1Cl (stereo not drawn)	normalized growth	0.989
O=C1C=CC2=C3c4cc(O)c(O)cc4CC3(O)COC2=C1O (stereo not drawn)	normalized growth	0.929
O=C(O[C@@H]1Cc2c(O)cc(O)cc2O[C@@H]1c1cc(O)c(O)c(O)c1-c1c([C@H]2Oc3cc(O)cc(O)c3C[C@H]2O)cc(O)c(O)c1O)c1cc(O)c(O)c(O)c1	normalized growth	0.873
CC(=O)NCCCS(=O)(=O)O	normalized growth	1.02
O=C1O[C@H](C(O)CO)C(O)=C1O (stereo partly drawn)	normalized growth	1.01
C=CCC1(C(C)CCC)C(=O)N=C(S)NC1=O (stereo not drawn)	normalized growth	0.976
C=CC(C1=CC(=O)C(OC)=CC1=O)c1ccccc1 (stereo not drawn)	normalized growth	0.947
Nc1ccc([As](=O)(O)O)cc1	normalized growth	1.01
NCCCC[C@H](N[C@@H](CCc1ccccc1)C(=O)O)C(=O)N1CCC[C@H]1C(=O)O	normalized growth	1.01
CC(C)=CCC/C(C)=C/CC/C(C)=C/CC/C(C)=C/CC/C(C)=C/CC/C(C)=C/CC/C(C)=C/CC/C(C)=C/CC/C(C)=C/CO	normalized growth	0.986
C=CC(C1=CC(=O)C=CC1=O)c1ccccc1 (stereo not drawn)	normalized growth	1.01
CCN(CC)CCOc1ccc2c(c1)C(=O)c1cc(OCCN(CC)CC)ccc1-2	normalized growth	0.974
C[n+]1cccc(C(=O)[O-])c1	normalized growth	0.97
Oc1c(Cl)cc(Cl)c2cccnc12	normalized growth	0.0819
OC[C@@H](O)[C@@H](O[C@@H]1O[C@H](CO)[C@@H](O)[C@H](O)[C@H]1O)[C@H](O)[C@@H](O)CO	normalized growth	0.996
Oc1c(I)cc(Cl)c2cccnc12	normalized growth	0.0829
CCN(CC)CCOc1ccc(/C(=C(\Cl)c2ccccc2)c2ccccc2)cc1	normalized growth	0.0847
Oc1c(Br)cc(Br)c2cccnc12	normalized growth	0.0629
CC(=O)O[C@H]1C[C@@H](OC(C)=O)C(C)(C)C2C[C@@H](OC(C)=O)[C@@]3(C)C4=CC(=O)O[C@@H](c5ccoc5)[C@]4(C)CCC3[C@]21C (stereo partly drawn)	normalized growth	0.989
CCCC1O[C@@H]2CC3C4CCC5=CC(=O)C=CC5(C)C4[C@@H](O)CC3(C)[C@]2(C(=O)CO)O1 (stereo partly drawn)	normalized growth	1
COC(=O)C[C@H]1C(C)(C)C(=O)[C@@H]2CC3=C4CC(=O)O[C@@H](c5ccoc5)[C@]4(C)CCC3[C@@]1(C)C2=O (stereo partly drawn)	normalized growth	1.01
CC(=O)c1c(O)c(C)c(O)c2c1OC1=CC(=O)C(C(C)=O)C(=O)C12C (stereo not drawn)	normalized growth	0.963
CC(C)=CCC[C@](C)(O)C1CC=C(C)CC1 (stereo partly drawn)	normalized growth	1
C=CC(C)(O)CC/C=C(\C)CCC=C(C)C (stereo not drawn)	normalized growth	0.98
O=[N+]([O-])c1cc([As](=O)(O)O)ccc1O	normalized growth	0.946
C=C(C)[C@H]1CC=C(C(=O)O)CC1	normalized growth	0.939
C=C[C@@H](C1=CC(=O)C(OC)=C(OC)C1=O)c1ccccc1	normalized growth	0.742
CS(=O)(=O)CCCCN=C=S	normalized growth	0.504

====

Some molecules, each annotated with its measured normalized growth.
test-protocol: chemical genetic growth profiling, strain panel (AID 1159580);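 note: tested at 20 µM; growth read once vehicle control cultures reached saturation at 30 °C; 1 = growth at the plate median or of vehicle wells; lower values mean less growth of the strain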
measurement-context: S. cerevisiae deletion strains, growth OD, locus YNL175C, strain NOP13, stronger effect = lower value
Among all 5,500 compounds or so, about 2,000 (36%) were called active. Not shown: some 18% with an inconclusive outcome. Some of the results follow.
assay-metric: normalized growth

molecule	obs-value
O=C(O)c1cccnc1Nc1cccc(C(F)(F)F)c1	0.981 (inactive)
CC(C)NC[C@H](O)c1ccc(O)c(O)c1	1.02 (inactive)
NCC(O)c1ccc(O)cc1 (configuration not stated)	1.01 (inactive)
O=C(O)c1ccccc1Nc1cccc(OCc2ccc3ccccc3n2)c1	0.94 (inactive)
Nc1nc(Cl)nc2c1ncn2[C@@H]1O[C@H](COP(=O)(O)OP(=O)(O)OP(=O)(O)O)[C@H](O)C1O (some centres not stated)	0.995 (inactive)
CN(C(=O)CCCOc1ccc2[nH]c(=O)ccc2c1)C1CCCCC1	1.01 (inactive)
CNc1ncnc2c1ncn2[C@H]1C[C@H](OP(=O)(O)O)[C@@H](COP(=O)(O)O)O1	0.996 (inactive)
